System: SF-539
Test: NCI one-dose assay
Type: cell-based
Conditions: Homo sapiens, SF-539, CNS cancer, read-out: Cell growth inhibition %
MEASUREMENT KIND: inhibition at 10 µM
Please answer using a numeric value trailed by its unit.

Example molecules with recorded inhibition at 10 µM:
{"MOLECULE": "O/N=C(\\CSc1nnc(-c2c[nH]c3ccccc23)n1-c1ccccc1)c1ccccc1 [Compound 7f]", "inhibition at 10 µM": "22.9%"}
{"MOLECULE": "C=CCn1c(SCC(=NO)c2ccc(OC)cc2)nnc1-c1c[nH]c2ccccc12 [Compound 7b]", "inhibition at 10 µM": "4.37%"}
{"MOLECULE": "O=C(CSc1nnc(-c2c[nH]c3ccccc23)n1-c1ccccc1)c1ccccc1 [Compound 6f]", "inhibition at 10 µM": "92.4%"}

Kindly review the next molecule as well.
Problem: Would you mind telling me what inhibition at 10 µM value was observed for COc1ccc(/C(CSc2nnc(-c3c[nH]c4ccccc34)n2-c2ccccc2)=N/O)cc1 [Compound 7g] ?
Result: 42.7%
